Organism: Rattus norvegicus
assay_info: Relative affinities for alpha2B and alpha1A receptors
The reader will find reported Selectivity values listed item by item below.
Format: numeric value only, no unit, no commentary.

Here are 2 compounds together with their reported answers.
compound	Selectivity
CC(N)C(O)c1ccccc1 (stereo not drawn)	0.03
O=C(Nc1cccc2c1CCCC2c1c[nH]cn1)C(F)(F)F (stereo not drawn)	4

Suppose we examine the compound CCS(=O)(=O)Nc1ccc2c(c1)C(c1c[nH]cn1)CCC2 (stereo not drawn) ; what Selectivity value has been reported?
0.02

Bench note: what Selectivity did Oc1cccc2c1CCCC2c1c[nH]cn1 (stereo not drawn) show?
0.1

# query: Selectivity of entry CN(c1cccc2c1CCCC2c1c[nH]cn1)S(C)(=O)=O (stereo not drawn)
4

Fill in: Selectivity of CCS(=O)(=O)Nc1cccc2c1CCCC2c1c[nH]cn1 (single isomer, unassigned; (+)) is ___
40

For COc1ccc(OC)c(C(O)CN)c1 (stereo not drawn) , what is its reported Selectivity?
0.9
